Could you please report measured EC50 for the items listed next?
System: MDA-MB-453
Assay summary: Payload cellular killing, 2D
Format: cell-based, human
Condition parameters: Homo sapiens, MDA-MB-453, Table 28, payload, MDA-MB-453, 2D (HER3 +++)
Answer by giving the amount and then stating its unit.

CC[C@@]1(O)C(=O)OCc2c1cc1n(c2=O)Cc2c-1nc1cc(F)c(C)c3c1c2[C@@H](NC(=O)CO)CC3 [DXd, reference compound]    1.9 nM

In the following, a different compound is considered.
EC50 for CC[C@@]1(O)C(=O)OCc2c1cc1n(c2=O)Cc2c-1nc1cc(F)c(C)c3c1c2[C@@H](NC(=O)C(C)(F)CO)CC3 (single isomer, unassigned) [Isomer 1 of Compounds 68 & 69] is 2.8 nM

---

Test system: A375
Assay summary: Compounds cellular killing (Cell Titer-Glo, 6 days, 2D)
Assay type: cell-based, human
Condition parameters: Homo sapiens, A-375; Table 21, A375; read-out: Emax
For each of the compounds below, state its Emax.
Give bare numbers, in %.

CC[C@@]1(O)C(=O)OCc2c1cc1n(c2=O)Cc2c-1nc1cc(F)c(C)c3c1c2[C@@H](NC(=O)C(C)(F)CO)CC3 (single isomer, unassigned)    99.9
CC[C@@]1(O)C(=O)OCc2c1cc1n(c2=O)Cc2c-1nc1cc(F)c(C)c3c1c2[C@@H](NC(=O)CO)CC3 [DXd, reference compound]    100
CC[C@@]1(O)C(=O)OCc2c1cc1n(c2=O)Cc2c-1nc1cc(F)c(C)c3c1c2[C@@H](NC(=O)C(C)(C)CO)CC3    99.9

// moving on: another record for Emax
Measured Emax, `CC[C@@]1(O)C(=O)OCc2c1cc1n(c2=O)Cc2c-1nc1cc(F)c(C)c3c1c2[C@@H](NC(=O)CCO)CC3` : 99.9

---

Would you kindly list recovery for each of these molecules?
Assay summary: in vitro
Condition parameters: PAMPA
Answers are plain numbers, in %.

CC[C@@]1(O)C(=O)OCc2c1cc1n(c2=O)Cc2c-1nc1cc(F)c(C)c3c1c2[C@@H](NC(=O)C(C)(C)CO)CC3    79.7
CC[C@@]1(O)C(=O)OCc2c1cc1n(c2=O)Cc2c-1nc1cc(F)c(C)c3c1c2[C@@H](N)CC3 [Exatecan, reference compound]    56
CC[C@@]1(O)C(=O)OCc2c1cc1n(c2=O)Cc2c-1nc1cc(F)c(C)c3c1c2[C@@H](NC(=O)CCO)CC3    48.1

Measured recovery of CC[C@@]1(O)C(=O)OCc2c1cc1n(c2=O)Cc2c-1nc1cc(F)c(C)c3c1c2[C@@H](NC(=O)CO)CC3 [DXd, reference compound] : 95.2

---

Exercise: for every item that follows, state its recorded pEC50.
Tested on: A375
Assay summary: Compounds cellular killing (Cell Titer-Glo, 6 days, 2D)
Assay type: cell-based, human
Condition parameters: Table 21, A375
Answers are plain numbers, as −log10 of the molar value.

CC[C@@]1(O)C(=O)OCc2c1cc1n(c2=O)Cc2c-1nc1cc(F)c(C)c3c1c2[C@@H](NC(=O)C(C)(F)CO)CC3 (single isomer, unassigned) [Example 69]    8.82

# input for lookup
Notebook: CC[C@@]1(O)C(=O)OCc2c1cc1n(c2=O)Cc2c-1nc1cc(F)c(C)c3c1c2[C@@H](NC(=O)C(C)(F)CO)CC3 (single isomer, unassigned) [Example 68] , pEC50 read as 8.35
